The values you see were collected from DBAASP.

Let's go through some recorded MIC values for Escherichia coli ATCC 25922 together.
measurementKind: MIC

compound="CC[C@H](C)[C@H](NC(=O)[C@H](CCCN=C(N)N)NC(=O)[C@H](Cc1c[nH]c2ccccc12)NC(=O)[C@H](CCCN=C(N)N)NC(=O)[C@H](CCCN=C(N)N)NC(=O)[C@@H](N)CCCCN)C(=O)N[C@@H](Cc1c[nH]c2ccccc12)C(=O)N[C@@H](CC(C)C)C(=O)N[C@H](C(N)=O)C(C)C [KRRWRIWLV]" observed="6.09 µM"
compound="CC(C)C[C@H](NC(=O)[C@H](CC(C)C)NC(=O)[C@@H](NC(=O)[C@H](CCCCN)NC(=O)[C@H](C)NC(=O)[C@H](CCCN=C(N)N)NC(=O)[C@H](CCCCN)NC(=O)[C@H](C)NC(=O)[C@H](CC(C)C)NC(=O)CN)[C@@H](C)O)C(N)=O [GLAKRAKTLL]" observed="> 512 µM"
compound="CC[C@H](C)[C@H](NC(=O)[C@H](C)N)C(=O)N[C@@H](CC(C)C)C(=O)N[C@@H](CCCN=C(N)N)C(=O)N[C@@H](CCCCN)C(=O)N[C@@H](C)C(=O)N[C@H](C(=O)N[C@@H](CCCN=C(N)N)C(=O)N[C@@H](CCCN=C(N)N)C(=O)N[C@@H](CC(C)C)C(=O)N[C@H](C(=O)N[C@@H](CCC(N)=O)C(=O)N[C@@H](CC(C)C)C(=O)N[C@H](C(=O)N[C@H](C(=O)N[C@@H](CO)C(=O)NCC(=O)O)C(C)C)[C@@H](C)CC)C(C)C)[C@@H](C)O [AILRKATRRLVQLIVSG]" observed="> 25 µM"
compound="CC[C@H](C)[C@H](NC(=O)[C@H](CC(=O)O)NC(=O)[C@H](Cc1ccccc1)NC(=O)[C@H](CC(C)C)NC(=O)CN)C(=O)N[C@H](C(=O)N[C@@H](CCCCN)C(=O)N[C@@H](CCCCN)C(=O)N[C@H](C(=O)N[C@H](C(=O)N[C@@H](CCCCN)C(=O)N[C@@H](CC(C)C)C(=O)N[C@@H](CC(C)C)C(=O)N[C@@H](CCCCN)C(N)=O)C(C)C)C(C)C)C(C)C [GLFDIVKKVVKLLK]" observed="> 20 µM"
compound="CC[C@H](C)[C@H](NC(=O)[C@H](CCCN=C(N)N)NC(=O)[C@H](CCCN=C(N)N)NC(=O)[C@@H](NC(=O)[C@@H](NC(=O)[C@H](CCC(N)=O)NC(=O)[C@@H](N)CCCN=C(N)N)[C@@H](C)CC)[C@@H](C)CC)C(=O)N[C@@H](CCC(N)=O)C(=O)N[C@@H](CCCN=C(N)N)C(N)=O [RQIIRRIQR]" observed="> 40.4 µM"
compound="CC[C@H](C)[C@H](NC(=O)[C@H](CCCCN)NC(=O)[C@@H](NC(=O)[C@H](CCCN=C(N)N)NC(=O)[C@H](CCCCN)NC(=O)[C@H](CC(C)C)NC(=O)[C@H](CC(C)C)NC(=O)CN)[C@@H](C)CC)C(=O)N[C@@H](CC(C)C)C(=O)N[C@@H](CC(C)C)C(N)=O [GLLKRIKILL]" observed="7.72 µM"
compound="CC[C@H](C)[C@H](NC(=O)[C@H](CO)NC(=O)[C@H](CCCCN)NC(=O)[C@@H](NC(=O)CNC(=O)[C@H](CCCCN)NC(=O)[C@H](Cc1c[nH]c2ccccc12)NC(=O)[C@H](CC(C)C)NC(=O)[C@H](CCCCN)NC(=O)CNC(=O)[C@H](CC(C)C)NC(=O)[C@@H](NC(=O)[C@@H](N)CO)[C@@H](C)CC)C(C)C)C(=O)N[C@@H](Cc1ccccc1)C(N)=O [SILGKLWKGVKSIF]" observed="31.7 µM"
compound="CC(C)C[C@H](NC(=O)[C@H](CC(C)C)NC(=O)[C@H](CCCCN)NC(=O)[C@H](CC(C)C)NC(=O)[C@H](CC(C)C)NC(=O)[C@H](Cc1c[nH]c2ccccc12)NC(=O)[C@H](CCCCN)NC(=O)[C@H](CC(C)C)NC(=O)[C@H](CC(C)C)NC(=O)[C@H](CCCCN)NC(=O)[C@H](CC(C)C)NC(=O)[C@@H](N)CC(C)C)C(=O)N[C@@H](CCCCN)C(N)=O [LLKLLKWLLKLLK]" observed="> 123 µM"
